Hi there, I'd appreciate the recorded Bliss excess for every entry that follows.
- System: TE-6 (Esophageal Squamous Cell Carcinoma);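 further: after 72 h of two-drug dosing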
- protocol-details: Bliss excess, mean over the matrix (fraction); higher = more synergy
One number for each entry.

CCc1c2c(nc3ccc(O)cc13)-c1cc3c(c(=O)n1C2)COC(=O)[C@]3(O)CC [SN-38] + CN(C)CCCOc1ccc(-c2ccc3ncc4c(c3c2)n(C2CCOCC2)c(=O)n4C)cn1 [AZD0156] (first compound max 0.3 µM, 7x7, partner max 1 µM) :: -0.0254

Consider the following items and state reported Bliss excess for each.
1. COc1cccc(OCCCN)c1-c1cc(Nc2cnc(C#N)cn2)n[nH]1 [Prexasertib] + C=CCn1c(=O)c2cnc(Nc3ccc(N4CCN(C)CC4)cc3)nc2n1-c1cccc(C(C)(C)O)n1 [AZD1775] (first compound max 1 µM, partner max 1 µM)
2. CC1(C)CCC(CN2CCN(c3ccc(C(=O)NS(=O)(=O)c4ccc(NCC5CCOCC5)c([N+](=O)[O-])c4)c(Oc4cnc5[nH]ccc5c4)c3)CC2)=C(c2ccc(Cl)cc2)C1 [Venetoclax] + C=CCn1c(=O)c2cnc(Nc3ccc(N4CCN(C)CC4)cc3)nc2n1-c1cccc(C(C)(C)O)n1 [AZD1775] (first compound max 1 µM, partner max 1 µM)
3. Cc1c2c(nn1C)CSCc1cc(n(C)n1)CSc1cc(c3ccccc3c1)OCCCc1c(C(=O)O)n(C)c3c-2c(Cl)ccc13 [AZD5991] + C[C@@H]1COCCN1C2=NC(=NC(=C2)C3(CC3)[S@](=N)(=O)C)C4=C5C=CNC5=NC=C4 [AZD6738] (first compound max 1 µM, 7x7, partner max 10 µM)

Reply:
1. 0.0995
2. -0.0859
3. 0.0298

====

- Test system: DND-41 (T-Lymphoblastic Leukemia)
- protocol-details: combination Emax (second highest fraction inhibited in the dose matrix, 72 h); higher = more inhibition; extreme values may be limits of the assay
observable: combination Emax
Numbers only.

Reference set, count: 3
COc1cccc(OCCCN)c1-c1cc(Nc2cnc(C#N)cn2)n[nH]1 [Prexasertib] + CN(C)CCCOc1ccc(-c2ccc3ncc4c(c3c2)n(C2CCOCC2)c(=O)n4C)cn1 [AZD0156] (first compound max 1 µM, 7x7, partner max 1 µM) :: 0.811
N#Cc1cnc(Nc2cc(NC[C@H]3CNCCO3)c(C(F)(F)F)cn2)cn1 [SRA737] + CCc1c2c(nc3ccc(O)cc13)-c1cc3c(c(=O)n1C2)COC(=O)[C@]3(O)CC [SN-38] (first compound max 10 µM, 7x7, partner max 0.3 µM) :: 0.974
CN(CCO)CC[C@H](CSc1ccccc1)Nc1ccc(S(=O)(=O)NC(=O)c2ccc(N3CCC([C@@H](O)c4ccccc4-c4ccc(Cl)cc4)CC3)cc2)cc1S(=O)(=O)C(F)(F)F [AZD4320] + C=CCn1c(=O)c2cnc(Nc3ccc(N4CCN(C)CC4)cc3)nc2n1-c1cccc(C(C)(C)O)n1 [AZD1775] (first compound max 1 µM, partner max 1 µM) :: 1

Now take the following molecule into account.
Recorded combination Emax (molecule CS(=O)(=O)CCNCc1ccc(-c2ccc3ncnc(Nc4ccc(OCc5cccc(F)c5)c(Cl)c4)c3c2)o1 [Lapatinib] + NC1(c2ccc(-c3nc4ccn5c(=O)[nH]nc5c4cc3-c3ccccc3)cc2)CCC1 [MK-2206] (first compound max 10 µM, 7x7, partner max 10 µM) ): 0.946
